Values compiled from patent US8487108B2.

# Tgt: trypsin-activated recombinant human renin (Homo sapiens)
# Sequence (P00797 67-406): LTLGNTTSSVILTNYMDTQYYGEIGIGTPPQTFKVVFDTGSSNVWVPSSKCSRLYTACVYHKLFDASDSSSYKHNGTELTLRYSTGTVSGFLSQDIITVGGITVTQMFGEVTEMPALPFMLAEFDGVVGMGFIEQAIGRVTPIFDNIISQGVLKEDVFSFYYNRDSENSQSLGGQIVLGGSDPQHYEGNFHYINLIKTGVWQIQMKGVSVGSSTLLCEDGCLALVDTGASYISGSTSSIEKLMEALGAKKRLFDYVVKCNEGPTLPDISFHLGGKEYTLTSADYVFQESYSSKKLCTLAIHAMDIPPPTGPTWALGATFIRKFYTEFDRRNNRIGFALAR
# Test method notes: Renin fluorescence assay (internally quenched peptide substrate)
# Type: biochemical
# Experimental parameters: compounds I*
pIC50: −log10 of the molar value.
Parameter measured: pIC50

Use the examples below as a reference point.
{"Compound": "CCC(C)(C)C[C@@H](CNC)NC(=O)N1CCC[C@@H]([C@@H](OCCNC(=O)OC)c2cccc(Cl)c2)C1 [I*-34a]", "Tgt": "trypsin-activated recombinant human renin (Homo sapiens)", "pIC50": "> 8.00"}
{"Compound": "CNC[C@H](CC1CCOCC1)NC(=O)N1CCO[C@@H]([C@@H](OCCNC(=O)OC)c2cccc(Cl)c2)C1 [I*-75a]", "Tgt": "trypsin-activated recombinant human renin (Homo sapiens)", "pIC50": "< 7.30"}
{"Compound": "CNC[C@H](CC1CCOCC1)NC(=O)N1CCC[C@@H]([C@@H](OCCNC(=O)OC)c2cccc(F)c2F)C1 [I*-71a]", "Tgt": "trypsin-activated recombinant human renin (Homo sapiens)", "pIC50": "> 7.70"}

Entry CNC[C@@H](NC(=O)N1CCC[C@@H]([C@@H](OCCNC(=O)OC)c2cccc(Cl)c2)C1)[C@@H](O)C1CCCCC1 [I*-100a] ; pIC50 = > 9.00

###

Catalogue of pIC50 values
# Tgt: trypsin-activated recombinant human renin (Homo sapiens, UniProt P00797)
# Test method notes: Renin fluorescence assay (internally quenched peptide substrate)
# Assay type: biochemical
# Experimental parameters: compounds I*
pIC50: −log10 of the molar value.

{"Compound": "COC(=O)NCCO[C@@H](c1cccc(F)c1)[C@@H]1CCCN(C(=O)N[C@H](CN)CC2CCCCC2)C1", "Tgt": "trypsin-activated recombinant human renin (Homo sapiens, UniProt P00797)", "Value reported": "> 9.00"}

Entry CNC[C@H](C[C@@H]1CCCOCC1)NC(=O)N1CCC[C@@H]([C@@H](OCCNC(=O)OC)c2cccc(Cl)c2)C1 [I*-99a] ; pIC50 = > 8.00

Entry CC[C@@H](N)[C@H](CC1CCCCC1)NC(=O)N1CCC[C@@H]([C@@H](OCCNC(=O)OC)c2cccc(Cl)c2)C1 [I*-83a] ; pIC50 = > 9.00

Entry CNC[C@H](CC1CCCCC1)N/C(=N\C#N)N1CCC[C@@H]([C@@H](OCCNC(=O)OC)c2cccc(Cl)c2)C1 [I*-127a] ; pIC50 = > 7.70

Entry CNCC(C[C@H]1C[C@@H](C)O[C@@H](C)C1)NC(=O)N1CCC[C@@H]([C@@H](OCCNC(=O)OC)c2cccc(Cl)c2)C1 (stereo partly drawn) [I*-132a] ; pIC50 = < 7.30

Entry CNC[C@@H](CC1(C)CCCCC1)NC(=O)N1CCC[C@@H]([C@@H](OCCNC(=O)OC)c2cc(F)cc(F)c2)C1 [I*-94a] ; pIC50 = < 7.30
